For each entry below, report its pEC50 value.
- Assayed Target: T1, human FAP expressed on cells (transfected HEK293; FAP-CHO-K1 recombinant cell line, BPS cat no. 79947) (human, UniProt Q12884 1-760)
- T1 construct: also called HuFAP-HEK293; Hek-FAP
- Experimental Protocol: flow cytometry, human FAP-transfected HEK293 cells
- Experimental: The binding of antibodies to human FAP expressed on transfected HEK293 cells was measured by FACS. In addition, binding to parental HEK293 was tested to confirm antibody specificity. […] Cells were either fixed with 2% PFA (30 minutes at 4° C.) followed by washout and storage in 100 ul of PBS or immediately analysed on a Flow Cytometer. The data was analysed using FloJo V10 and GraphPad Prism. […]
Numbers only, as −log10 of the molar value.

These solved cases illustrate the format of a correct answer.
INSERT INTO measurements (binder, recorded_result) VALUES
  ('Clone 3.3 (antibody, V domains shown, anti-FAP mAb (bivalent)) VH: QVQLVQSGTEVKKPGASVKVSCKASGYTFTGYYMNWVRQAPGQGLEWVGWINPNSGDTNFAQKFQGRVTMTRDSSISTAYMELSRLRSDDTAVYYCARQFRGYSYGYGMDVWGKGTTVTVSS VL: DIQMTQSPSSLSASVGDRVTITCRASQNIGSYLNWYQQKPGKAPKLLIYAASSLQSGVPSRFSGSGSGTDFTLTISSLQPEDFATYYCQQANSFPFTFGPGTKVDIK', 9.22),
  ('Clone 3.2 (antibody, V domains shown, anti-FAP mAb (bivalent)) VH: QVQLVQSGAEVKKPGASVKVSCKASGYTFTGYYMHWVRQAPGQGLEWMGWIYPNTGGTNYAQNFQGRVTMTRDTSISTAYMELSSLRSDDTAVYYCARDDYNKNLDYWGQGTLVTVSS VL: DIQMTQSPSTLSASVGDRGTITCRASQSIGSWLAWYQQKPGKTPKLLIYKASSLESGVPSRFSGSGSGTEFTLTISSLQPDDFATYYCQQYNSYFRTFGQGTKVEIK', 9.15),
  ('Clone 3.1 (antibody, V domains shown, anti-FAP mAb (bivalent)) VH: QLQLQESGPGLVKPSETLSLTCTVSGGSISSSTYYWGWIRQPPGKGLEWIGSIFYSGNTYYNPSLKSRVTISVDTSKNQFSLRLNSVTAADTAVYYCAREIIEPRPGYFDYWGQGTLVTVSS VL: DIQMTQSPSSLSASVGDRVTITCRASQSISKYLNWYQQKPGKAPKFLIYAASSLQSGVPSRFSGSGSGTDFTLTISSLQPEDFATYYCQQSNSIPRTFGQGTKVEIK', 8.77);

Now look at this one.
Bench note: what pEC50 did Clone 3.4 (antibody, V domains shown, anti-FAP mAb (bivalent)) VH: EVQLVESGGGLVKPGGSLRLSCVASGFTFSLAWMNWVRQAPGKGLEWVGHIKSRADGGSTDYAAPVKGRFTISRDDSKNTLYLHMNSLKTEDTAVYFCSRFYWNYVLDYWGQGTLVTVSS VL: DIQMTQSPSSLSASVGDRVTITCRASQSINSYFNWYQQKPGKAPKLLIYAASGLQSGVPSRFSGSGSGTDFTLTISSLQPEDFATYYCQQSYSPPYTFGQGTNLEIK show? 8.96
